# Test system: Tov-21-G
# PROTOCOL TEXT: Primary qHTS to identify gynecologic anti-cancer compounds using libraries of approved drugs and bioactive compounds (AID 1345084); further: nearly all actives have a fitted effect of over 55% in size
# APPLIED CONDITIONS: Gynecologic cancer cell panel viability, ATPlite luminescence, 48 h; series mostly up to 57.5 µM
Results filed as inconclusive are left out. Activity calls are given as the source filed them. The call rests on the fitted dose curve; in most records, active means well fitted cell-killing curve with a large enough effect; inconclusive means small, poorly fitted or top-dose-only effect, or effect the other way; inactive means flat fitted curve, though single readings scatter.
# output must be one of true (1) for active, false (0) for inactive

- COMPOUND: "COc1cccc(Nc2ncnn3ccc(CN4CC[C@@H](N)[C@H](O)C4)c23)c1"
  LABEL VALUE: "true (1)"
- COMPOUND: "CC1C(=O)OCC2=CCN3CCC(OC(=O)C(C)(O)C1(C)O)C23 (configuration not stated)"
  LABEL VALUE: "false (0)"
- COMPOUND: "C=C(C)[C@@H]1CC[C@]2(C)CC[C@]3(C)[C@H](CC[C@@H]4[C@@]5(C)CC[C@@H](O)C(C)(C)[C@@H]5CC[C@]43C)[C@@H]12"
  LABEL VALUE: "false (0)"

Task item: Hello, I am checking results. What call was entered for COC(=O)c1cc(OC)c(O[C@@H]2O[C@@H](C)[C@H](O)[C@@H](O)[C@H]2O)c(OC)c1 ?
Reply: false (0)

Task item: Which outcome was assigned to C=C[C@H]1[C@H](O[C@@H]2O[C@H](CO)[C@@H](O)[C@H](O)[C@H]2O)OC=C(C(=O)OC)[C@H]1CCOC(=O)c1cc(O)c(O)c(O)c1 in this test?
Reply: false (0)

Task item: Would you mind telling me which call this test gave COC1/C=C/C(C)(O)C(SCC(N)C(=O)O)CC(=O)OC(C)C(C)CC/C=C/1C (configuration not stated) ?
Reply: false (0)

Task item: Called result for CC1CC(O)C2(OC1=O)OC1C(O)C3C4CCC5CC(OC6OC(CO)C(O)C(O)C6OC6OC(C)C(O)C(O)C6O)CCC5(C)C4CCC3(C)C1C2C (configuration not stated)
Reply: false (0)

Task item: Just curious, what result did CC12CCC3c4ccc(O)cc4CCC3C1CC(OC1OC(C(=O)O)C(O)C(O)C1O)C2O (configuration not stated) get here?
Reply: false (0)

Task item: Record lookup: outcome of this test for COC(=O)CC(C)(O)CC(=O)OCc1ccc(O[C@@H]2O[C@H](CO)[C@@H](O)[C@H](O)[C@H]2O)cc1 (some centres not stated) ?
Reply: false (0)
